Ref: ChEMBL document CHEMBL3585305

pIC50: −log10 of the molar value.
Reported pIC50, Acetylcholinesterase (Electrophorus electricus).
Parameter: pIC50

CN(Cc1ccccc1)Cc1ccc(COc2ccc3ccc(=O)oc3c2)cc1	6.12
Cc1c(C)c2ccc(OCCCCCN(C)Cc3cccc(Cl)c3)cc2oc1=O	6.54
Cc1c(C)c2ccc(OCCCCCN(C)Cc3ccccc3)cc2oc1=O	6.26
Cc1c(C)c2ccc(OCCCCN(C)Cc3ccccc3)cc2oc1=O	6.31
O=c1ccc2ccc(OCc3ccc(CCNCc4ccccc4)cc3)cc2o1	5.33
CN(Cc1ccccc1)Cc1ccc(COc2ccc3cc(C#N)c(=O)oc3c2)cc1	6.70
Cc1c(C)c2ccc(OCc3ccc(CN(C)Cc4ccccc4)cc3)cc2oc1=O	7.00
COc1cccc(CN(C)Cc2cccc(COc3ccc4ccc(=O)oc4c3)c2)c1	5.18
Cc1c(C)c2ccc(OCCCCCCN(C)Cc3ccccc3)cc2oc1=O	7.02
Cc1cc(=O)oc2cc(OCc3ccc(CN(C)Cc4cccc(Cl)c4)cc3)ccc12	6.92

====

pIC50: −log10 of the molar value.
Reported pIC50, UniProtKB O42275.
Parameter: pIC50

CN(Cc1cccc(C#N)c1)Cc1cccc(COc2ccc3ccc(=O)oc3c2)c1	5.38
CN(CCc1ccc(COc2ccc3ccc(=O)oc3c2)cc1)Cc1ccccc1	6.07
Cc1cc(=O)oc2cc(OCc3ccc(CN(C)Cc4ccc(C#N)cc4)cc3)ccc12	5.48
CN(Cc1ccc(COc2ccc3c(CO)cc(=O)oc3c2)cc1)Cc1cccc(Cl)c1	6.60
CCN(CCCCCCOc1ccc2c(C)c(C)c(=O)oc2c1)Cc1ccccc1	6.49
CCN(CCCOc1ccc2c(C)c(C)c(=O)oc2c1)Cc1ccccc1	6.44
CN(Cc1ccccc1)Cc1cccc(COc2ccc3ccc(=O)oc3c2)c1	5.64

====

- Tgt: Cholinesterase (Equus caballus) (UniProt P81908)
- Sequence (P81908 whole entry): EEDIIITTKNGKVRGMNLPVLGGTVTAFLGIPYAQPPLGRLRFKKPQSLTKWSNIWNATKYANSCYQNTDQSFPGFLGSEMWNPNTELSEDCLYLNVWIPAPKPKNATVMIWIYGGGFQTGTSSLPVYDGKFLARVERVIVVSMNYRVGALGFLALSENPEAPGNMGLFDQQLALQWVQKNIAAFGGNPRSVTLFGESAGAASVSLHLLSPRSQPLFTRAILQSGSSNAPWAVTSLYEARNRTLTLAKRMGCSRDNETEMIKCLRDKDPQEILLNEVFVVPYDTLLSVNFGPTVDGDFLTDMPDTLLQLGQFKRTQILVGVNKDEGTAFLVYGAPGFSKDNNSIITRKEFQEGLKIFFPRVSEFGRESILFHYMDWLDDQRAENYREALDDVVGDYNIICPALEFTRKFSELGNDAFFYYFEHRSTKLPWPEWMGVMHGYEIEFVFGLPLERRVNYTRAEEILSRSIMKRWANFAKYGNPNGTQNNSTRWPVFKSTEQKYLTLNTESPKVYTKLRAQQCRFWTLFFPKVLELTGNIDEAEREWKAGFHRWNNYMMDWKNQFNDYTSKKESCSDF
- Test summary: Inhibition of equine serum BuChE at 10 uM by spectrophotometric Ellman's method
Please use Satisfied whenever inhibition is not below 30%, and Not satisfied whenever it is.

CN(Cc1ccc(C#N)cc1)Cc1ccc(COc2ccc3c(CO)cc(=O)oc3c2)cc1	Not satisfied
Cc1cc2ccc(OCc3ccc(CN(C)Cc4ccc(C#N)cc4)cc3)cc2oc1=O	Not satisfied
Cc1c(C)c2ccc(OCc3ccc(CN(C)Cc4ccc(C#N)cc4)cc3)cc2oc1=O	Not satisfied
Cc1cc(=O)oc2cc(OCc3ccc(CN(C)Cc4ccc(C#N)cc4)cc3)ccc12	Not satisfied
CN(Cc1ccc(C#N)cc1)Cc1ccc(COc2ccc3cc(C#N)c(=O)oc3c2)cc1	Not satisfied
Cc1c(C)c2ccc(OCc3ccc(CN(C)Cc4cccc(Cl)c4)cc3)cc2oc1=O	Satisfied
Cc1cc2ccc(OCc3ccc(CN(C)Cc4cccc(Cl)c4)cc3)cc2oc1=O	Not satisfied
Cc1cc(=O)oc2cc(OCc3ccc(CN(C)Cc4cccc(Cl)c4)cc3)ccc12	Satisfied

====

Reported IC50, Amine oxidase [flavin-containing] B (Rattus norvegicus).
Parameter: IC50 (µM)

Cc1c(C)c2ccc(OCCCCCNCc3ccccc3)cc2oc1=O	0.5
COc1cccc(CN(C)Cc2cccc(COc3ccc4ccc(=O)oc4c3)c2)c1	2.5
COc1cccc(CN(C)Cc2ccc(COc3ccc4ccc(=O)oc4c3)cc2)c1	2.9
CN(Cc1cccc(C#N)c1)Cc1cccc(COc2ccc3ccc(=O)oc3c2)c1	3.7
O=c1cc(CO)c2ccc(OCc3ccc(CNCc4ccccc4)cc3)cc2o1	0.53
Cc1c(C)c2ccc(OCCCCCN(C)Cc3ccccc3)cc2oc1=O	0.98
Cc1c(C)c2ccc(OCCCCCN(C)Cc3cccc(Cl)c3)cc2oc1=O	8.9
CN(Cc1ccc(COc2ccc3c(CO)cc(=O)oc3c2)cc1)Cc1cccc(Cl)c1	0.24
